- ASSAY METHOD TEXT: Pharmacokinetic test and evaluation in beagle dogs
- Type: in vivo
- MEASUREMENT CONDITIONS: dog, po; male beagle dogs, gavage 2 mg/kg, plasma, n = 4, mean
MEASURED ATTRIBUTE: Cmax

1) C[C@@H](CO)NC(=O)c1cc(-c2ccc(Cl)cc2)nn(-c2cnn(C)c2)c1=O [BAY-2416964, reference compound]: 211 ng/mL
2) [2H]C([2H])(O)[C@H](C)NC(=O)c1cc(-c2ccc(Cl)cc2)nn(-c2cnn(C([2H])([2H])[2H])c2)c1=O: 294 ng/mL

* * *

- ASSAY METHOD TEXT: Pharmacokinetic test and evaluation in mice
- Format: in vivo
- MEASUREMENT CONDITIONS: mouse, po; male ICR mice, gavage 2 mg/kg, plasma, n = 4, mean
MEASURED ATTRIBUTE: Cmax (ng/mL)

1) [2H]C([2H])(O)[C@H](C)NC(=O)c1cc(-c2ccc(Cl)cc2)nn(-c2cnn(C)c2)c1=O: 351
2) C[C@@H](CO)NC(=O)c1cc(-c2ccc(Cl)cc2)nn(-c2cnn(C)c2)c1=O [BAY-2416964, reference compound]: 348
3) [2H]C([2H])([2H])n1cc(-n2nc(-c3ccc(Cl)cc3)cc(C(=O)N[C@@H](C)CO)c2=O)cn1: 241
4) [2H]C([2H])(O)[C@H](C)NC(=O)c1cc(-c2ccc(Cl)cc2)nn(-c2cnn(C([2H])([2H])[2H])c2)c1=O: 351

* * *

Listed here are molecules together with their documented AUC(0-t).
- ASSAY METHOD TEXT: Pharmacokinetic test and evaluation in beagle dogs
- Format: in vivo
- MEASUREMENT CONDITIONS: dog, po; male beagle dogs, gavage 2 mg/kg, plasma, n = 4, mean
MEASURED ATTRIBUTE: AUC(0-t) (ng·h/mL)

1. C[C@@H](CO)NC(=O)c1cc(-c2ccc(Cl)cc2)nn(-c2cnn(C)c2)c1=O [BAY-2416964, reference compound]: 995
2. [2H]C([2H])(O)[C@H](C)NC(=O)c1cc(-c2ccc(Cl)cc2)nn(-c2cnn(C([2H])([2H])[2H])c2)c1=O: 1880

* * *

Listed here are molecules together with their documented Cmax.
- ASSAY METHOD TEXT: Pharmacokinetic test and evaluation in rats
- Type: in vivo
- MEASUREMENT CONDITIONS: rat, po; male SD rats, gavage 2 mg/kg, plasma, n = 4, mean
MEASURED ATTRIBUTE: Cmax (ng/mL)

1) [2H]C([2H])(O)[C@H](C)NC(=O)c1cc(-c2ccc(Cl)cc2)nn(-c2cnn(C)c2)c1=O: 96.6
2) [2H]C([2H])([2H])n1cc(-n2nc(-c3ccc(Cl)cc3)cc(C(=O)N[C@@H](C)CO)c2=O)cn1: 146
3) C[C@@H](CO)NC(=O)c1cc(-c2ccc(Cl)cc2)nn(-c2cnn(C)c2)c1=O [BAY-2416964, reference compound]: 99.5
4) [2H]C([2H])(O)[C@H](C)NC(=O)c1cc(-c2ccc(Cl)cc2)nn(-c2cnn(C([2H])([2H])[2H])c2)c1=O: 230

* * *

Listed here are molecules together with their documented AUC(0-t).
- ASSAY METHOD TEXT: Pharmacokinetic test and evaluation in rats
- Format: in vivo
- MEASUREMENT CONDITIONS: rat, po; male SD rats, gavage 2 mg/kg, plasma, n = 4, mean
MEASURED ATTRIBUTE: AUC(0-t) (ng·h/mL)

1. [2H]C([2H])([2H])n1cc(-n2nc(-c3ccc(Cl)cc3)cc(C(=O)N[C@@H](C)CO)c2=O)cn1: 990
2. [2H]C([2H])(O)[C@H](C)NC(=O)c1cc(-c2ccc(Cl)cc2)nn(-c2cnn(C([2H])([2H])[2H])c2)c1=O: 1390
3. [2H]C([2H])(O)[C@H](C)NC(=O)c1cc(-c2ccc(Cl)cc2)nn(-c2cnn(C)c2)c1=O: 736
4. C[C@@H](CO)NC(=O)c1cc(-c2ccc(Cl)cc2)nn(-c2cnn(C)c2)c1=O [BAY-2416964, reference compound]: 624

* * *

Listed here are compounds together with their documented AUC(0-t).
- ASSAY METHOD TEXT: Pharmacokinetic test and evaluation in mice
- Assay type: in vivo
- MEASUREMENT CONDITIONS: mouse, po; male ICR mice, gavage 2 mg/kg, plasma, n = 4, mean
MEASURED ATTRIBUTE: AUC(0-t) (ng·h/mL)

1) [2H]C([2H])(O)[C@H](C)NC(=O)c1cc(-c2ccc(Cl)cc2)nn(-c2cnn(C)c2)c1=O: 2460
2) [2H]C([2H])([2H])n1cc(-n2nc(-c3ccc(Cl)cc3)cc(C(=O)N[C@@H](C)CO)c2=O)cn1: 850
3) C[C@@H](CO)NC(=O)c1cc(-c2ccc(Cl)cc2)nn(-c2cnn(C)c2)c1=O [BAY-2416964, reference compound]: 1490
4) [2H]C([2H])(O)[C@H](C)NC(=O)c1cc(-c2ccc(Cl)cc2)nn(-c2cnn(C([2H])([2H])[2H])c2)c1=O: 2620
